Target: T1, recombinant human IL-6R-extracellular domain (ECD) (human, UniProt P08887 20-365)
T1 construct: extracellular domain; also called IL-6R-ECD
T1 sequence (looked up): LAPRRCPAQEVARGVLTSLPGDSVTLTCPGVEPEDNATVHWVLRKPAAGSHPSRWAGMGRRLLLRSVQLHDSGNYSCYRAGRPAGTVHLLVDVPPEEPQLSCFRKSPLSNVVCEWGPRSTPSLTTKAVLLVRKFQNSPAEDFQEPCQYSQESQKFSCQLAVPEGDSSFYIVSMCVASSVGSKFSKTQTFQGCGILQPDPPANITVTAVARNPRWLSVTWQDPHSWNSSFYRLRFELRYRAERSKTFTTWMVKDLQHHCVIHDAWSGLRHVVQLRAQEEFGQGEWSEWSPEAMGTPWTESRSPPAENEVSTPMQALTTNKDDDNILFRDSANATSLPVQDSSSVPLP
Experiment: direct ELISA on IL-6R
ENDPOINT_NAME: EC50 (µg/mL)
Could you give me the number in µg/mL? Just the number is fine.

{"BINDER": "clone 37 rabbit anti-IL-6R antibody (antibody, V domains shown) VH: QSLEESGGRLVTPGTPLTLTCTVSGIDLSRYWMSWVRQAPGKGLEWIGMISGGNTWYASWAKGRFTISGTSTTVDLKIISPTTADTATYFCARGIDTGIATTFNLWGPGTLVTVSS VL: AQVLTQTPSSVSAAVGGTVTISCQSSQSVYSNNRLSWFQQKPGQPPKLLIYYTSTLASGVPSRFKGSGSGTQFTLTISDLECDDAATYYCQGYYSGVINVFGGGTEVVVK", "EC50 / µg/mL": 0.05}
{"BINDER": "clone 36 rabbit anti-IL-6R antibody (antibody, V domains shown) VH: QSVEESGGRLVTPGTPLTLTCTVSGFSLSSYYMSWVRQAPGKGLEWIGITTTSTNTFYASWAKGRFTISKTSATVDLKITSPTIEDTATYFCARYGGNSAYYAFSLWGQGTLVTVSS VL: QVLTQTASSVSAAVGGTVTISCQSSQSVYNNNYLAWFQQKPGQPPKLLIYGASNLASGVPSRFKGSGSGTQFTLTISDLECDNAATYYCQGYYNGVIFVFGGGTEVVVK", "EC50 / µg/mL": 0.02}
{"BINDER": "clone 21 rabbit anti-IL-6R antibody (antibody, V domains shown) VH: QSVEESGGRLVTPGTPLTLTCTVSGIDLSNYYMSWVRQAPGKGLEWIGISSTTSNTFYASWAKGRFTISKTSATVDLKITSPTTEDTATYFCARYGGNSAYYAFSLWGQGTLVTVSS VL: AVVLTQTPSPVSAAVGGTVTINCQSSQSVYNNNYLAWYQQKPGQPPKLLIYGASNLASGVPSRFKGSGSGTQFTLTISEVQCDDAATYYCQGYYNGVIFVFGGGTEVVVK", "EC50 / µg/mL": 0.04}

Ask: Find the recorded EC50 belonging to clone 42 rabbit anti-IL-6R antibody (antibody, V domains shown) VH: QSVEESGGRLVTPGTPLTLTCTVSGFSLSNYWMSWVRQAPGKGLEWIAFIGGGNTFYASWAKGRFTISKTSSTTVDLSMPSPTTEDTATYFCARGYGAPGYDLWGQGTLVTVSL VL: AIVMTQTPSSKSVPVGDTVTINCQASESVYTNNRLSWYQQKPGQPPKLLIYYASTLASGVPSRFKGSGSGTQFTLTISDVVCDNAATYYCVGYKSSDGDGTAFGGGTEVVVK and report it.
Result: 0.04

Ask: Find the recorded EC50 belonging to clone 23 rabbit anti-IL-6R antibody (antibody, V domains shown) VH: QSLEESGGRLVTPGTPLTLTCTVSGIDLSRYWMSWVRQAPGKGLEWIGMISGGNTWYASWAKGRFTISKTSTTVDLKITSPTTEDTATYFCARGIDTGIATTFNLWGPGTLVTVSS VL: AQVLTQTPSSVSTAVGGTVTISCQSSQNVYNNNRLSWFQQKPGQPPKLLIYYTSTLPSGVPSRFKGSGSGTQFTLTISDLECDDAATYYCQGYYSGVINVFGGGTEVVVK and report it.
Result: 0.07
